Biological target: acetylcholine receptor
Experiment: SPR, AchR immobilized on chip
Binding affinity (RU) overview

[
  {
    "binder": "RKSLLR [Spep 6mer]",
    "units_text": "RU",
    "Binding affinity (RU)": 35
  },
  {
    "binder": "RSYSR [5mer-311]",
    "units_text": "RU",
    "Binding affinity (RU)": 167
  },
  {
    "binder": "RKRIRR [6mer-1-43]",
    "units_text": "RU",
    "Binding affinity (RU)": 548
  },
  {
    "binder": "RRQRR [5mer-73]",
    "units_text": "RU",
    "Binding affinity (RU)": 179
  }
]

Data origin, for the record: patent US20250011363A1
